Some molecules, each annotated with its measured Activity.
test: Induction of glucose stimulated insulin secretion in rat INS1 cells assessed as increase in insulin level at 10 uM incubated for 1 hr; type: functional
All answers are understood in ng/mL, so give the number only.

These solved cases illustrate the format of a correct answer.
C/C=C/CCC(=O)c1cc(C)c(O)c(C)c1O = 15.57
C=CC(C)(C)[C@@]12C=C(O)C(=O)N3/C(=C/c4c[nH]cn4)C(=O)N[C@]31N(O)c1ccccc12 = 12.86
Cc1cc(O)c2c(c1)C(=O)c1cccc(O)c1C2=O [CHRYSOPHANOL] = 24.23

Query block: Please supply the value of reported Activity for the item Cc1ccc(S(=O)(=O)NC(=O)NN2CC3CCCC3C2)cc1 (centres undefined) [GLICLAZIDE]
Result block: 20.85
